Numbers sourced from PubChem BioAssay AID1918954.

System: MDA-MB-468 complex spheroids with HUVEC/MSC, viability
Test: Anticancer human tumor MDA-MB-468 cell line growth inhibition;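 note: spheroids exposed to agents for seven days; 100% = DMSO vehicle control viability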
Settings: second compound 0.316 µM; first compound 3.16 µM; stronger effect = lower value
For each entry below, report its viability, T/C value.
// return numeric value only (unit: %, not printed)

Lab note: measured viability, T/C of O=C(c1cc(Cc2n[nH]c(=O)c3ccccc23)ccc1F)N1CCN(C(=O)C2CC2)CC1 + NC1CC1c1ccc(-c2cccc(O)c2)cc1 was 16.2

Lab note: measured viability, T/C of CC1(C)CCC(CN2CCN(c3ccc(C(=O)NS(=O)(=O)c4ccc(NCC5CCOCC5)c([N+](=O)[O-])c4)c(Oc4cnc5[nH]ccc5c4)c3)CC2)=C(c2ccc(Cl)cc2)C1 + NC1CCC(NC2CC2c2ccccc2)CC1 was 78

Lab note: measured viability, T/C of COc1ccc([C@@H](O)c2cc(-c3ncnc4cc(N5CCOCC5)ccc34)c(F)cc2Cl)nn1 + NC1CC1c1ccc(-c2cccc(O)c2)cc1 was 25.9
